B1: Matrix metalloproteinase-28 (Homo sapiens), Q9H239 (parent)
chain: MVARVGLLLRALQLLLWGHLDAQPAERGGQELRKEAEAFLEKYGYLNEQVPKAPTSTRFSDAIRAFQWVSQLPVSGVLDRATLRQMTRPRCGVTDTNSYAAWAERISDLFARHRTKMRRKKRFAKQGNKWYKQHLSYRLVNWPEHLPEPAVRGAVRAAFQLWSNVSALEFWEAPATGPADIRLTFFQGDHNDGLGNAFDGPGGALAHAFLPRRGEAHFDQDERWSLSRRRGRNLFVVLAHEIGHTLGLTHSPAPRALMAPYYKRLGRDALLSWDDVLAVQSLYGKPLGGSVAVQLPGKLFTDFETWDSYSPQGRRPETQGPKYCHSSFDAITVDRQQQLYIFKGSHFWEVAADGNVSEPRPLQERWVGLPPNIEAAAVSLNDGDFYFFKGGRCWRFRGPKPVWGLPQLCRAGGLPRHPDAALFFPPLRRLILFKGARYYVLARGGLQVEPYYPRSLQDWGGIPEEVSGALPRPDGSIIFFRDDRYWRLDQAKLQATTSGRWATELPWMGCWHANSGSALF

# Variants of: B1
# experimental.setup: with furin_human FURIN

mutation.key | effect of a mutation on the interaction
E241A | with no effect
Y43A;G44A | with no effect
R119A;K120A | with no effect
